MEASUREMENT_PROTOCOL: Drug distribution to brain and liver in mice
Type: in vivo, Swiss Albino mice
CONDITION_SUMMARY: male, Swiss Albino, mouse, brain/plasma, ip, 10 mg/kg; i.p. administration, 8h; ng/g normalized against ng/mL; read-out: BRAIN/PLASMA
Method: These studies were performed at the GVKBioscience Pvt. LTD Contract Research and Development Organization (CRDO). Animals were housed in cages with clean bedding. Adult Swiss Albino male mice (weight = 20–35 g) were maintained and monitored for good health in accordance with GVKBioscience Pvt. LTD Test Facility SOPs and at the discretion of the laboratory animal veterinarian. […] One Set of QC (LQC, MQC, and HQC) samples have been analyzed before and after the sample batch. […]
ENDPOINT: Kp at 8 h

COMPOUND: CCCCc1cn(-c2ccc(NC(=O)Nc3ccccc3C(F)(F)F)cc2)nn1 [FHP01]
ASSAY_VALUE: 3.14
